Tested on: MDA-MB-231 complex spheroid viability
Assay: Anticancer human tumor MDA-MB-231/ATCC cell line growth inhibition;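 further: drug exposure lasted 7 days starting on day 3 of spheroid growth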
Conditions: second compound 3.16 µM; first compound 3 µM; active compounds read low
Measured viability, T/C accompanies every entry in the list below.

| molecule | assay system | viability, T/C |
| --- | --- | --- |
| O=C(C=Cc1cccc(S(=O)(=O)Nc2ccccc2)c1)NO + NC1CCC(NC2CC2c2ccccc2)CC1 | MDA-MB-231 complex spheroid viability | 0.34% |
| CCN(c1cc(-c2ccc(CN3CCOCC3)cc2)cc(C(=O)NCc2c(C)cc(C)[nH]c2=O)c1C)C1CCOCC1 + NC1CC1c1ccc(-c2cccc(O)c2)cc1 | MDA-MB-231 complex spheroid viability | 16.6% |
| Nc1ccccc1NC(=O)c1ccc(CNC(=O)OCc2cccnc2)cc1 + NC1CCC(NC2CC2c2ccccc2)CC1 | MDA-MB-231 complex spheroid viability | 1.4% |
| NS(=O)(=O)OCC1CC(n2ccc3c(NC4CCc5ccccc54)ncnc32)CC1O (configuration not stated) + NC1CCC(NC2CC2c2ccccc2)CC1 | MDA-MB-231 complex spheroid viability | 31.3% |
| Nc1ccccc1NC(=O)c1ccc(CNC(=O)OCc2cccnc2)cc1 + NC1CC1c1ccc(-c2cccc(O)c2)cc1 | MDA-MB-231 complex spheroid viability | 0.13% |
| CCN(c1cc(-c2ccc(CN3CCOCC3)cc2)cc(C(=O)NCc2c(C)cc(C)[nH]c2=O)c1C)C1CCOCC1 + NC1CCC(NC2CC2c2ccccc2)CC1 | MDA-MB-231 complex spheroid viability | 55.2% |
| COc1cc(C2c3cc4c(cc3C(OC3OC5COC(C)OC5C(O)C3O)C3COC(=O)C23)OCO4)cc(OC)c1O (configuration not stated) + NC1CC1c1ccc(-c2cccc(O)c2)cc1 | MDA-MB-231 complex spheroid viability | 11.7% |

###

Tested on: MDA-MB-231 complex spheroid viability
Assay: Anticancer human tumor MDA-MB-231/ATCC cell line growth inhibition;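 further: drug exposure lasted 7 days starting on day 3 of spheroid growth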
Conditions: second compound 3.16 µM; first compound 3 µM; active compounds read low

| molecule | viability, T/C [%] |
| --- | --- |
| COc1cc(C2c3cc4c(cc3C(OC3OC5COC(C)OC5C(O)C3O)C3COC(=O)C23)OCO4)cc(OC)c1O (stereo not drawn) + NC1CCC(NC2CC2c2ccccc2)CC1 | 13.3 |
| O=C(C=Cc1cccc(S(=O)(=O)Nc2ccccc2)c1)NO + NC1CC1c1ccc(-c2cccc(O)c2)cc1 | 58.4 |
| NS(=O)(=O)OCC1CC(n2ccc3c(NC4CCc5ccccc54)ncnc32)CC1O (stereo not drawn) + NC1CC1c1ccc(-c2cccc(O)c2)cc1 | 28.3 |

###

Test system: MDA-MB-231 complex spheroid viability
Experiment: Anticancer human tumor MDA-MB-231/ATCC cell line growth inhibition;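 further: drug exposure lasted 7 days starting on day 3 of spheroid growth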
Details: second compound 0.1 µM; first compound 0.000316 µM; active compounds read low
Description: Multicellular complex tumor spheroid response to LSD1 Inhibitor Iadademstat in combination with a variety of drugs and investigational agents in selected tumor cell lines The current study was undertaken to assess response to LSD1 inhibitors in combination with standard-of-care drugs and investigational agents in solid tumor complex spheroid models as well as in the K-562 leukemia. […] Compounds. […] If the clinical Cmax for an agent had not been determined, the highest concentration tested was 10 microM. […]
Threshold check on viability, T/C: strictly below 90% is 1.0; on or above 90% is 0.0.

| compound | assay system | category label |
| --- | --- | --- |
| CC(C)CC(NC(=O)CNC(=O)c1cc(Cl)ccc1Cl)B1OC(=O)CC(CC(=O)O)(C(=O)O)O1 (stereo not drawn) + NC1CCC(NC2CC2c2ccccc2)CC1 | MDA-MB-231 complex spheroid viability | 0.0 |
| CC(C)CC(NC(=O)CNC(=O)c1cc(Cl)ccc1Cl)B1OC(=O)CC(CC(=O)O)(C(=O)O)O1 (stereo not drawn) + NC1CC1c1ccc(-c2cccc(O)c2)cc1 | MDA-MB-231 complex spheroid viability | 1.0 |
| CC(C)CC(NC(=O)C(Cc1ccccc1)NC(=O)c1cnccn1)B(O)O (stereo not drawn) + NC1CC1c1ccc(-c2cccc(O)c2)cc1 | MDA-MB-231 complex spheroid viability | 1.0 |
| Cn1ncnc1C1c2n[nH]c(=O)c3cc(F)cc(c23)NC1c1ccc(F)cc1 (stereo not drawn) + NC1CCC(NC2CC2c2ccccc2)CC1 | MDA-MB-231 complex spheroid viability | 0.0 |
| Cn1ncnc1C1c2n[nH]c(=O)c3cc(F)cc(c23)NC1c1ccc(F)cc1 (stereo not drawn) + NC1CC1c1ccc(-c2cccc(O)c2)cc1 | MDA-MB-231 complex spheroid viability | 1.0 |
| CC[C@@]1(O)C(=O)OCc2c1cc1n(c2=O)Cc2cc3c(CN(C)C)c(O)ccc3nc2-1 + NC1CC1c1ccc(-c2cccc(O)c2)cc1 | MDA-MB-231 complex spheroid viability | 1.0 |
| CC(C)CC(NC(=O)C(Cc1ccccc1)NC(=O)c1cnccn1)B(O)O (stereo not drawn) + NC1CCC(NC2CC2c2ccccc2)CC1 | MDA-MB-231 complex spheroid viability | 0.0 |

###

Test system: MDA-MB-231 complex spheroid viability
Experiment: Anticancer human tumor MDA-MB-231/ATCC cell line growth inhibition;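 further: drug exposure lasted 7 days starting on day 3 of spheroid growth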
Conditions: second compound 10 µM; first compound 0.000949 µM; active compounds read low

| compound | unit descriptor | viability, T/C |
| --- | --- | --- |
| Nc1ncn(C2CC(O)C(CO)S2)c(=O)n1 (stereo unspecified) + NC1CCC(NC2CC2c2ccccc2)CC1 | % | 61.2 |
| Nc1ccn(C2OC(CO)C(O)C2(F)F)c(=O)n1 (stereo unspecified) + NC1CC1c1ccc(-c2cccc(O)c2)cc1 | % | 22.9 |
| Nc1ccn(C2OC(CO)C(O)C2(F)F)c(=O)n1 (stereo unspecified) + NC1CCC(NC2CC2c2ccccc2)CC1 | % | 19.2 |
| Nc1ncn(C2CC(O)C(CO)S2)c(=O)n1 (stereo unspecified) + NC1CC1c1ccc(-c2cccc(O)c2)cc1 | % | 51.1 |
| CCc1c2c(nc3ccc(O)cc13)-c1cc3c(c(=O)n1C2)COC(=O)[C@]3(O)CC + NC1CC1c1ccc(-c2cccc(O)c2)cc1 | % | 18.5 |
| CCc1c2c(nc3ccc(O)cc13)-c1cc3c(c(=O)n1C2)COC(=O)[C@]3(O)CC + NC1CCC(NC2CC2c2ccccc2)CC1 | % | 13.9 |

###

Tested on: MDA-MB-231 complex spheroid viability
Experiment: Anticancer human tumor MDA-MB-231/ATCC cell line growth inhibition; active = viability on the fitted dose curve at most 10% of control; inactive = the rest;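 further: drug exposure lasted 7 days starting on day 3 of spheroid growth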
Settings: second compound 3.16 µM; first compound 0.3 µM
Outcomes: active, inactive

| compound | category label |
| --- | --- |
| Nc1ccn(C2OC(CO)C(O)C2(F)F)c(=O)n1 (stereo not given) + NC1CCC(NC2CC2c2ccccc2)CC1 | active |
| Nc1ccccc1NC(=O)c1ccc(CNC(=O)OCc2cccnc2)cc1 + NC1CCC(NC2CC2c2ccccc2)CC1 | inactive |
| O=C(C=Cc1cccc(S(=O)(=O)Nc2ccccc2)c1)NO + NC1CC1c1ccc(-c2cccc(O)c2)cc1 | inactive |
| CCN(c1cc(-c2ccc(CN3CCOCC3)cc2)cc(C(=O)NCc2c(C)cc(C)[nH]c2=O)c1C)C1CCOCC1 + NC1CC1c1ccc(-c2cccc(O)c2)cc1 | inactive |
| Nc1ccccc1NC(=O)c1ccc(CNC(=O)OCc2cccnc2)cc1 + NC1CC1c1ccc(-c2cccc(O)c2)cc1 | inactive |

###

Test system: MDA-MB-231 complex spheroid viability
Assay: Anticancer human tumor MDA-MB-231/ATCC cell line growth inhibition;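 further: drug exposure lasted 7 days starting on day 3 of spheroid growth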
Settings: second compound 10 µM; first compound 0.00949 µM; active compounds read low
Recorded measurements of viability, T/C, one per entry

| molecule | assay system | viability, T/C |
| --- | --- | --- |
| Nc1ccn(C2OC(CO)C(O)C2(F)F)c(=O)n1 (configuration not stated) + NC1CCC(NC2CC2c2ccccc2)CC1 | MDA-MB-231 complex spheroid viability | 14.4% |
| NS(=O)(=O)OCC1CC(n2ccc3c(NC4CCc5ccccc54)ncnc32)CC1O (configuration not stated) + NC1CC1c1ccc(-c2cccc(O)c2)cc1 | MDA-MB-231 complex spheroid viability | 68.6% |
| O=C(C=Cc1cccc(S(=O)(=O)Nc2ccccc2)c1)NO + NC1CCC(NC2CC2c2ccccc2)CC1 | MDA-MB-231 complex spheroid viability | 39.8% |
| CCN(c1cc(-c2ccc(CN3CCOCC3)cc2)cc(C(=O)NCc2c(C)cc(C)[nH]c2=O)c1C)C1CCOCC1 + NC1CC1c1ccc(-c2cccc(O)c2)cc1 | MDA-MB-231 complex spheroid viability | 52.6% |
| COc1cc(C2c3cc4c(cc3C(OC3OC5COC(C)OC5C(O)C3O)C3COC(=O)C23)OCO4)cc(OC)c1O (configuration not stated) + NC1CCC(NC2CC2c2ccccc2)CC1 | MDA-MB-231 complex spheroid viability | 59.5% |
| Nc1ccccc1NC(=O)c1ccc(CNC(=O)OCc2cccnc2)cc1 + NC1CCC(NC2CC2c2ccccc2)CC1 | MDA-MB-231 complex spheroid viability | 63.2% |
| NS(=O)(=O)OCC1CC(n2ccc3c(NC4CCc5ccccc54)ncnc32)CC1O (configuration not stated) + NC1CCC(NC2CC2c2ccccc2)CC1 | MDA-MB-231 complex spheroid viability | 69.7% |
